Experiment: AUC in mouse at 10 mg/kg, po
Type: ADME, organism-based
Design: dose 10 mg/kg, route oral
Settings: plasma
metricName: AUC
Output should be the measured figure followed by the unit it is expressed in.

Item under review: "COc1ccc(-c2nc3c(c(Nc4ccc(CC(=O)O)c(F)c4)n2)S(=O)(=O)CCC3)cc1F" . Reported AUC? 2770 ng·h/mL

====

Target: 3',5'-cyclic-AMP phosphodiesterase 4D (Homo sapiens, UniProt Q08499)
Sequence (Q08499 whole entry): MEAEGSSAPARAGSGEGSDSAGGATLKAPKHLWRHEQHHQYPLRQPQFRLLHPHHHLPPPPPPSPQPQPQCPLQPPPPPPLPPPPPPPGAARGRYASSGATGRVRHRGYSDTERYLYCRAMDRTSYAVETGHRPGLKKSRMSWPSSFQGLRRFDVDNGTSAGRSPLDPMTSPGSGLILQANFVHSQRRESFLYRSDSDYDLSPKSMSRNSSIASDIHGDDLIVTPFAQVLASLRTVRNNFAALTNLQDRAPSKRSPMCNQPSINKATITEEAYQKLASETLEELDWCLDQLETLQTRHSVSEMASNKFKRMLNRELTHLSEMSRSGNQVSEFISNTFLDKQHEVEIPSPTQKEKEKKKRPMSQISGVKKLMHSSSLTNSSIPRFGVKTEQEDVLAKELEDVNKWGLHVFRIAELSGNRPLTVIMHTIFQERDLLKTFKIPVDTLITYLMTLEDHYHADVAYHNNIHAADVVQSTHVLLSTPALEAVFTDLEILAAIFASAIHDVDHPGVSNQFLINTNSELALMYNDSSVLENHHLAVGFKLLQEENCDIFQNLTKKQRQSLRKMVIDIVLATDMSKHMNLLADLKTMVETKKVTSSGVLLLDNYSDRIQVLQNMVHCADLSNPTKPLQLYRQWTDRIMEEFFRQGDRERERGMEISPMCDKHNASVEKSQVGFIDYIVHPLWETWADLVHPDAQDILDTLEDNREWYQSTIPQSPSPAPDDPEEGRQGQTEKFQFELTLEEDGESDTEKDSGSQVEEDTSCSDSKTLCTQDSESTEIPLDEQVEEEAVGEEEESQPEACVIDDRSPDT
Assay: Inhibition of full-length human PDE4D2 assessed as cAMP hydrolysis preincubated for 20 mins followed by cAMP addition measured after 30 mins
pIC50: −log10 of the molar value.
I would appreciate it if you labelled entries class 1 when pIC50 is 6 or higher, otherwise class 0.

[
  {
    "compoundStructure": "COc1ccc(-c2nc3c(c(Nc4cc(F)c(CC(=O)O)cc4Cl)n2)S(=O)(=O)CCC3)cc1F",
    "assignedLabel": "class 1"
  },
  {
    "compoundStructure": "COc1ccc(-c2nc3c(c(Nc4ccc(CC(=O)O)cc4)n2)SCCC3)cn1",
    "assignedLabel": "class 0"
  },
  {
    "compoundStructure": "O=C(O)Cc1ccc(Nc2nc(-c3ccccc3)nc3c2S(=O)(=O)CCC3)cc1",
    "assignedLabel": "class 1"
  }
]

Is reported pIC50 greater than or equal to 6 here: "O=C(O)Cc1ccc(Nc2nc(-c3cc4ccccc4s3)nc3c2S(=O)(=O)CCC3)cc1" class 1

====

Organism: Homo sapiens
Assay: Selectivity ratio of IC50 for full-length human PDE4D2 to IC50 for full-length human PDE4B2
metricName: Ratio IC50

Below are worked cases with known answers.
[
  {
    "compoundStructure": "O=C(O)Cc1ccc(Nc2nc(-c3ccc(-c4ccccc4)cc3)nc3c2S(=O)(=O)CCC3)cc1",
    "Ratio IC50": 21
  },
  {
    "compoundStructure": "O=C(O)Cc1ccc(Nc2nc(-c3ccc(F)cc3)nc3c2SCCC3)cc1",
    "Ratio IC50": 8.3
  },
  {
    "compoundStructure": "COc1ccc(-c2nc3c(c(Nc4ccc(CC(=O)O)c(F)c4)n2)S(=O)(=O)CCC3)cc1",
    "Ratio IC50": 173
  },
  {
    "compoundStructure": "COc1ccc(-c2nc3c(c(Nc4cc(Cl)c(CC(=O)O)cc4Cl)n2)S(=O)(=O)CCC3)cc1F",
    "Ratio IC50": 12
  },
  {
    "compoundStructure": "O=C(O)Cc1ccc(Nc2nc(-c3ccc4ccccc4c3)nc3c2S(=O)(=O)CCC3)cc1",
    "Ratio IC50": 27
  },
  {
    "compoundStructure": "COc1ccc(-c2nc3c(c(Nc4ccc(CC(=O)O)cc4)n2)SCCC3)c(F)c1F",
    "Ratio IC50": 16
  },
  {
    "compoundStructure": "O=C(O)Cc1ccc(Nc2nc(-c3cccc(F)c3)nc3c2SCCC3)cc1",
    "Ratio IC50": 12
  },
  {
    "compoundStructure": "COc1ccc(-c2nc3c(c(Nc4ccc(CC(=O)O)cc4)n2)SCCC3)cn1",
    "Ratio IC50": 53
  }
]

API: the following record is the query input.
Item under review: "COc1cccc(-c2nc3c(c(Nc4ccc(CC(=O)O)cc4)n2)SCCC3)c1" . Reported Ratio IC50? 15
